species on record: Homo sapiens; assay: Inhibition of lipoprotein-associated phospholipase A2 in whole human plasma at 10 uM; format: cell-free
Assign classes using reported inhibition values and the ranges low bracket: < 30%; middle bracket: ≥ 30% and < 70%; high bracket: ≥ 70%, please.

>>> assigned_category("O=C(O/N=C/c1ccc(F)cc1)c1ccc(F)cc1")
"high bracket"
>>> assigned_category("O=C(O/N=C/c1cccc(F)c1F)c1ccccc1")
"low bracket"
>>> assigned_category("N#C/C(=N\\OC(=O)N1CCOCC1)c1ccccc1")
"high bracket"
>>> assigned_category("O=C(O/N=C/c1ccc(F)c(F)c1)c1ccccc1")
"high bracket"
>>> assigned_category("O=C(O/N=C/c1cc(F)cc(F)c1)N1CCOCC1")
"middle bracket"
>>> assigned_category("O=C(O/N=C/c1ccc(F)c(F)c1)N1CCOCC1")
"high bracket"
>>> assigned_category("O=C(O/N=C/c1ccc(F)cc1)c1ccccc1")
"high bracket"
>>> assigned_category("N#C/C(=N\\OC(=O)c1ccc(F)c(F)c1)c1ccccc1")
"low bracket"
>>> assigned_category("O=C(O/N=C/c1cc(F)cc(F)c1)c1ccccc1")
"middle bracket"
>>> assigned_category("O=C(O/N=C/c1cc(F)ccc1F)c1ccccc1")
"low bracket"
>>> assigned_category("O=C(O/N=C/c1ccccc1)N1CCOCC1")
"middle bracket"
>>> assigned_category("N/C(=N\\OC(=O)c1ccccc1)c1ccccc1")
"low bracket"
>>> assigned_category("O=C(O/N=C/c1c(F)cccc1F)c1ccccc1")
"low bracket"
>>> assigned_category("C/C(=N\\OC(=O)c1ccccc1)c1ccccc1")
"middle bracket"
>>> assigned_category("O=C(O/N=C/c1ccc(F)c(F)c1)c1ccc(F)cc1")
"middle bracket"
>>> assigned_category("O=C(O/N=C/c1ccccc1)c1ccccc1")
"high bracket"
